The measurements presented in this section are drawn from ChEMBL document CHEMBL3885861.

Species: Rattus norvegicus
Measurement description: Open TG-GATES - Regimen: Daily Repeat
Assay type: toxicity, organism-based, Sprague-Dawley
Set-up: regimen Daily Repeat, gender Male, age 6 weeks
Settings: in vivo, po, 0 mg/kg, […], tissue Blood, route gavage, dose level Control, time 14 day
Reported endpoint: RBC
The reply should consist of the numeric value with the unit placed after it.

CN(C/C=C/C#CC(C)(C)C)Cc1cccc2ccccc12 [TERBINAFINE]: 729.8 x10_4/ul
COc1ccc([C@@H]2Sc3ccccc3N(CCN(C)C)C(=O)[C@@H]2OC(C)=O)cc1 [DILTIAZEM]: 706.2 x10_4/ul

Reported RBC of CCN(CC)C(=S)SSC(=S)N(CC)CC : 693.4 x10_4/ul

====

Species on record: Rattus norvegicus
Measurement description: Open TG-GATES - Regimen: Daily Repeat
Format: toxicity, organism-based, Sprague-Dawley
Design: regimen Daily Repeat, gender Male, age 6 weeks
Settings: in vivo, po, 1000 mg/kg, 72 h, tissue Blood, route gavage, dose level High, time 3 day
Listing: MCH of selected molecules
Answer in pg, number only, no unit symbol.

O=C(O)c1ccccc1Nc1ccccc1: 20.5
CC(=O)[C@@]1(O)CC[C@H]2[C@@H]3C=C(Cl)C4=CC(=O)CC[C@]4(C)[C@H]3CC[C@@]21C: 20.2
CCCCNC(=O)NS(=O)(=O)c1ccc(C)cc1 [TOLBUTAMIDE]: 21.2

Recorded MCH (molecule CC(S)C(=O)NCC(=O)O (centres undefined) ): 20.8

====

The entries below come with measured TC values attached.
Species on record: Rattus norvegicus
Measurement description: Open TG-GATES - Regimen: Daily Repeat
Type: toxicity, organism-based, Sprague-Dawley
Set-up: regimen Daily Repeat, gender Male, age 6 weeks
Settings: in vivo, po, 0 mg/kg, […], tissue Plasma, route gavage, dose level Control, time 7 day
The reply should be a number in mg/dL, with the unit left off.

Below: 2 compounds and their reported TC.
CN(C/C=C/C#CC(C)(C)C)Cc1cccc2ccccc12: 69.4
O=c1ccc2ccccc2o1: 70

For the next question, use this compound.
The value of TC measured for the compound NS(=O)(=O)c1cc(C(=O)O)c(NCc2ccco2)cc1Cl [FUROSEMIDE] turned out to be 85.6

====

Some compounds, each annotated with its measured Ret.
Organism: Rattus norvegicus
Measurement description: Open TG-GATES - Regimen: Daily Repeat
Type: toxicity, organism-based, Sprague-Dawley
Parameters: regimen Daily Repeat, gender Male, age 6 weeks
Settings: in vivo, po, 300 mg/kg, 72 h, tissue Blood, route gavage, dose level Middle, time 3 day
Value expressed in %; do not type the unit.

Record excerpt, results attached:
O=C(O)c1ccccc1Nc1ccccc1: 6.8
CCCCNC(=O)NS(=O)(=O)c1ccc(C)cc1 [TOLBUTAMIDE]: 6.3
CC(=O)[C@@]1(O)CC[C@H]2[C@@H]3C=C(Cl)C4=CC(=O)CC[C@]4(C)[C@H]3CC[C@@]21C: 5.9

Memo: CC(S)C(=O)NCC(=O)O (centres undefined) , reported Ret: 7.5

====

Species on record: Rattus norvegicus
Measurement description: Open TG-GATES - Regimen: Daily Repeat
Assay type: toxicity, organism-based, Sprague-Dawley
Parameters: regimen Daily Repeat, gender Male, age 6 weeks
Settings: in vivo, po, 0 mg/kg, […], tissue Plasma, route gavage, dose level Control, time 14 day
Recorded TBIL, one value per entry.
Please append the unit to your numeric answer.

Example cases with answers are listed next.
Nc1ccc(Cc2ccc(N)cc2)cc1: 0.052 mg/dL
CCO: 0.4 mg/dL

// moving on: another record for TBIL
Reported TBIL of O=c1ccc2ccccc2o1 : 0.3 mg/dL
